tgt: ARHGEF12, Q9NZN5-2
Sequence (Q9NZN5 other isoform, or with tags, fused parts or gaps): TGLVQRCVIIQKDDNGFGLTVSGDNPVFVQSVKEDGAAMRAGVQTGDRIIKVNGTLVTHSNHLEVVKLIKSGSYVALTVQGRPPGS
assayText: holdup assay
Design: key: below the threshold = too weak to quantify, mostly under pKd 3.1 to 4
particulars: plain residues with an end cap or a label only (N-terminal biotin on a linker: ado-ado)
assayEndpoint: pKd
Returns: the value as a bare number; no unit string appended.

{"columns": ["binder", "measurement"],
 "data": [
  ["SKQFDKNAYV [CLDN10, P78369]", 3.66],
  ["DSEEELPTRL [GRK6, P43250]", 3.57],
  ["IGHEDLETAV [DGKI, O75912]", 3.49]
]}

Lab note: GVHSNDHSVV [LPAR1, Q92633] gave pKd of 3.54

Lab note: LLQEEWETVM [PTH1R, Q03431] gave pKd of 3.61

Lab note: FHSIKQSTAV [CRHR1, P34998] gave pKd of 4.63

Lab note: SSSVNVSSNL [CXCR1, P25024] gave pKd of 4.24

Lab note: STYCDYTIEI [FAM71C, Q8NEG0] gave pKd of 3.76
